# EXPERIMENTAL_TARGET: PRKCB2 (human)
# PROTOCOL_TEXT: radiometric filter-binding kinase assay, Kinase HotSpot
# MEASUREMENT_CONTEXT: compound 0.5 µM; ATP 10 µM
QUANTITY_NAME: residual activity (%)
Please respond with the number in % and leave the unit unwritten.

Nc1n[nH]c2nnc(-c3c(-c4ccccc4)nn4ccccc34)cc12: 99.7

(Q) Please give measured residual activity of the following entry: CC(C)[C@H](CO)Nc1nc(Nc2cccc(Cl)c2)c2ncn(C(C)C)c2n1
(A) 88.6

(Q) Please give measured residual activity of the following entry: O=C1Cc2c([nH]c3ccc([N+](=O)[O-])cc23)-c2ccccc2N1
(A) 105

(Q) Please give measured residual activity of the following entry: CC(C)(C)c1nc2c3ccc(F)cc3c3c(=O)[nH]ccc3c2[nH]1
(A) 90.6

(Q) Please give measured residual activity of the following entry: Cc1cc2ncc(-c3ccccc3)nc2cc1C
(A) 124

(Q) Please give measured residual activity of the following entry: C#Cc1cccc(Nc2ncnc3cc(OCCOC)c(OCCOC)cc23)c1
(A) 98.6

(Q) Please give measured residual activity of the following entry: COc1ccc(-c2cnc3c(-c4ccsc4)cnn3c2)cc1
(A) 94.3

(Q) Please give measured residual activity of the following entry: CCN1/C(=C/C(C)=O)Sc2ccc(OC)cc21
(A) 99.3

(Q) Please give measured residual activity of the following entry: CCCNC(=O)Nc1ccc(Oc2ncnc3cc(OC)c(OC)cc23)cc1Cl
(A) 93.6

(Q) Please give measured residual activity of the following entry: CSc1nc(-c2ccc(F)cc2)c(-c2ccnc(NC(C)c3ccccc3)c2)[nH]1 (stereo not given)
(A) 101

(Q) Please give measured residual activity of the following entry: Cc1ccc(NC(=O)c2ccc(CN3CCN(C)CC3)cc2)cc1Nc1nc(-c2cccnc2)cs1
(A) 95.9

(Q) Please give measured residual activity of the following entry: O=C(NC(NC(=S)Nc1ccc(F)c([N+](=O)[O-])c1)C(Cl)(Cl)Cl)C(c1ccccc1)c1ccccc1 (stereo not given)
(A) 107

(Q) Please give measured residual activity of the following entry: O=c1cc(N2CCNCC2)oc2c(-c3ccccc3)cccc12
(A) 101

(Q) Please give measured residual activity of the following entry: COc1cc2nccc(Oc3ccc(NC(=S)NC(=O)c4ccccc4C)cc3)c2cc1OC
(A) 102

(Q) Please give measured residual activity of the following entry: Nc1nc(Nc2ccc(S(N)(=O)=O)cc2)nn1C(=S)Nc1c(F)cccc1F
(A) 74.5

###

# EXPERIMENTAL_TARGET: UniProt P04629
# Sequence (P04629 whole entry, looked up): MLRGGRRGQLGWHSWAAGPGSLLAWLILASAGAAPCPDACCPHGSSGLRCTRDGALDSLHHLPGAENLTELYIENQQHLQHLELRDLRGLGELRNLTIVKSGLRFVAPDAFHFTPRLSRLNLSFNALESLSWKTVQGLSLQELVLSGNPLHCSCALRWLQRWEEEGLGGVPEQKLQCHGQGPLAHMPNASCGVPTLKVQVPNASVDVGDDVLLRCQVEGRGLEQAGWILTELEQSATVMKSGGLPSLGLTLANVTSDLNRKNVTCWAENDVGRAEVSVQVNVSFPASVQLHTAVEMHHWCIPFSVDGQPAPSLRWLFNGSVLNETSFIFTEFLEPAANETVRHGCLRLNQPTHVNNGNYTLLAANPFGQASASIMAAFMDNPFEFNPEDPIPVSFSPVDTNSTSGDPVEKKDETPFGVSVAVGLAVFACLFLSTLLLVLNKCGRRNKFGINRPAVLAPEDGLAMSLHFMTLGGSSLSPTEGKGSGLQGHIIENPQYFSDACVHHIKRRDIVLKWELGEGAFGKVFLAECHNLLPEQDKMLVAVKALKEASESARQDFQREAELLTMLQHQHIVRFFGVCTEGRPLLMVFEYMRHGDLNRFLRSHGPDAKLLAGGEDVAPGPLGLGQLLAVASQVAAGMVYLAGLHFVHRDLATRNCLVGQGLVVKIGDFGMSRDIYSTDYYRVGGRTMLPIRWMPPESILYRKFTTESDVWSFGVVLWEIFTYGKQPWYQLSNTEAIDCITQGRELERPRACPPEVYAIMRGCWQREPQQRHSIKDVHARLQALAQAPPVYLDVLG
# PROTOCOL_TEXT: radiometric filter-binding kinase assay, Kinase HotSpot
# MEASUREMENT_CONTEXT: compound 0.5 µM; ATP 10 µM
A collection of molecules and their measured residual activity
Please respond with the number in % and leave the unit unwritten.

Please review the following examples before continuing.
CC(C)[C@H](CO)Nc1nc(Nc2cccc(Cl)c2)c2ncn(C(C)C)c2n1: 67.3
Nc1nc(Nc2ccc(S(N)(=O)=O)cc2)nn1C(=O)c1c(F)cccc1F: 98.8
O=c1cc(N2CCNCC2)oc2c(-c3ccccc3)cccc12: 96.4

(Q) Please give measured residual activity of the following entry: O=C(NC(NC(=S)Nc1ccc(F)c([N+](=O)[O-])c1)C(Cl)(Cl)Cl)C(c1ccccc1)c1ccccc1 (stereo unspecified)
(A) 107

(Q) Please give measured residual activity of the following entry: CCCNC(=O)Nc1ccc(Oc2ncnc3cc(OC)c(OC)cc23)cc1Cl
(A) 93.2

(Q) Please give measured residual activity of the following entry: Clc1ccc(Nc2nnc(Cc3ccncc3)c3ccccc23)cc1
(A) 98.7

(Q) Please give measured residual activity of the following entry: NC(=O)c1ccc(N(C(N)=O)c2c(F)cccc2F)nc1-c1ccc(F)cc1F
(A) 96.3

(Q) Please give measured residual activity of the following entry: Nc1n[nH]c2nnc(-c3c(-c4ccccc4)nn4ccccc34)cc12
(A) 101

(Q) Please give measured residual activity of the following entry: COc1cc2nccc(Oc3ccc(NC(=S)NC(=O)c4ccccc4C)cc3)c2cc1OC
(A) 82.5

(Q) Please give measured residual activity of the following entry: CC(C)(C)c1nc2c3ccc(F)cc3c3c(=O)[nH]ccc3c2[nH]1
(A) 48.7

(Q) Please give measured residual activity of the following entry: COc1ccc(-c2cnc3c(-c4ccsc4)cnn3c2)cc1
(A) 93.2

(Q) Please give measured residual activity of the following entry: Nc1nc(Nc2ccc(S(N)(=O)=O)cc2)nn1C(=S)Nc1c(F)cccc1F
(A) 31.7

(Q) Please give measured residual activity of the following entry: CC(C)n1cnc2c(Nc3cccc(Cl)c3)nc(NCCO)nc21
(A) 98.2

(Q) Please give measured residual activity of the following entry: CSc1nc(-c2ccc(F)cc2)c(-c2ccnc(NC(C)c3ccccc3)c2)[nH]1 (stereo unspecified)
(A) 91.2

(Q) Please give measured residual activity of the following entry: O=c1cc(-c2cccc3c2Sc2ccccc2S3)oc(N2CCOCC2)c1
(A) 99.4

(Q) Please give measured residual activity of the following entry: C#Cc1cccc(Nc2ncnc3cc(OCCOC)c(OCCOC)cc23)c1
(A) 102

###

# EXPERIMENTAL_TARGET: AURKC (human) (UniProt Q9UQB9)
# Sequence (Q9UQB9 whole entry, looked up): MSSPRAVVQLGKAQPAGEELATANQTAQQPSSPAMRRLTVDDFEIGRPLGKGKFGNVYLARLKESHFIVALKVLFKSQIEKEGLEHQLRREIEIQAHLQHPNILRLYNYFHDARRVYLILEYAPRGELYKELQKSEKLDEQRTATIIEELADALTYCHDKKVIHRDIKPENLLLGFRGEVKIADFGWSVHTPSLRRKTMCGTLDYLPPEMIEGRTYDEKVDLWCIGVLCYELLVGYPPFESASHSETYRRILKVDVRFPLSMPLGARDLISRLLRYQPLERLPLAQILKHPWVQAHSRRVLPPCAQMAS
# PROTOCOL_TEXT: radiometric filter-binding kinase assay, Kinase HotSpot
# MEASUREMENT_CONTEXT: compound 0.5 µM; ATP 10 µM
// label = 1 (yes) if residual activity is not less than 90%, otherwise 0 (no)

COc1cc2nccc(Oc3ccc(NC(=S)NC(=O)c4ccccc4C)cc3)c2cc1OC: 0 (no)
Cc1cc(Nc2cc(N3CCN(C)CC3)nc(Sc3ccc(NC(=O)C4CC4)cc3)n2)[nH]n1: 0 (no)
O=C(Nc1ccc(Cl)cc1)c1ccccc1NCc1ccncc1: 1 (yes)
O=c1cc(N2CCNCC2)oc2c(-c3ccccc3)cccc12: 1 (yes)
Cc1ccc(NC(=O)c2ccc(CN3CCN(C)CC3)cc2)cc1Nc1nc(-c2cccnc2)cs1: 1 (yes)
CCN1/C(=C/C(C)=O)Sc2ccc(OC)cc21: 1 (yes)
CC(C)[C@H](CO)Nc1nc(Nc2cccc(Cl)c2)c2ncn(C(C)C)c2n1: 1 (yes)

(Q) hey, is residual activity for this one >= 90%? O=C(NC(NC(=S)Nc1ccc(F)c([N+](=O)[O-])c1)C(Cl)(Cl)Cl)C(c1ccccc1)c1ccccc1 (stereo not given)
(A) 1 (yes)

###

# EXPERIMENTAL_TARGET: INSRR (human) (UniProt P14616)
# Sequence (P14616 whole entry, looked up): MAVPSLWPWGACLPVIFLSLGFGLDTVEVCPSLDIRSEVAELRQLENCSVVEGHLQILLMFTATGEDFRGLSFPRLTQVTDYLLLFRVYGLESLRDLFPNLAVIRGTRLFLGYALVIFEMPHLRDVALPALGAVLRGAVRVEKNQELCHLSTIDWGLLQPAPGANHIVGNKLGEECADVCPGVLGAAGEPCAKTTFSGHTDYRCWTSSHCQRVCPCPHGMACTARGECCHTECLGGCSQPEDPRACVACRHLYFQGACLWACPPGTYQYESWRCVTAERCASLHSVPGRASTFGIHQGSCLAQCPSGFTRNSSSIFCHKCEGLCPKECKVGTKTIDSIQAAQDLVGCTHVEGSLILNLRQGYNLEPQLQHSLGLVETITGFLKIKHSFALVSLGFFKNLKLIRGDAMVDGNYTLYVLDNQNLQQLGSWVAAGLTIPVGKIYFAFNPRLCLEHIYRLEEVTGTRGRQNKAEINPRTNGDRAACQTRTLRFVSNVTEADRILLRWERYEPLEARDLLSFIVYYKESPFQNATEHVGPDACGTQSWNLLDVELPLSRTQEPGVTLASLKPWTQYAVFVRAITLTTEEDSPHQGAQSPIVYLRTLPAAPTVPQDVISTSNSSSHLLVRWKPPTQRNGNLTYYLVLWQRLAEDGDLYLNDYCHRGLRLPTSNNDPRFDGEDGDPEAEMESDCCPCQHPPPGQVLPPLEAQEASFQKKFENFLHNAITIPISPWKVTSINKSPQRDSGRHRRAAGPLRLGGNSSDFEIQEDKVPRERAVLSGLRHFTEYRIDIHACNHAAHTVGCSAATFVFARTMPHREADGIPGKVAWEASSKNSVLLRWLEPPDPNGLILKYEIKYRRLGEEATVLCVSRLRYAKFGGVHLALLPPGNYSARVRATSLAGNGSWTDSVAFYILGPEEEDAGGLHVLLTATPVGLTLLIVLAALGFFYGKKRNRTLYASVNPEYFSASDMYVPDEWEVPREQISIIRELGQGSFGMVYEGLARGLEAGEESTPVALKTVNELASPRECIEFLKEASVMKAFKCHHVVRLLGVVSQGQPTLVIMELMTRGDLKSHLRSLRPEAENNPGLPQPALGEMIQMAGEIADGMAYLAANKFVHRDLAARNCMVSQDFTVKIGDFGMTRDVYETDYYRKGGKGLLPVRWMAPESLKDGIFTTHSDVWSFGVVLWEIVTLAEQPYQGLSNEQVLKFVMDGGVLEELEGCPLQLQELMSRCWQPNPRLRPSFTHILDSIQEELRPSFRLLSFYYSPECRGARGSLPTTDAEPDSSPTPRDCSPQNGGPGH
# PROTOCOL_TEXT: radiometric filter-binding kinase assay, Kinase HotSpot
# MEASUREMENT_CONTEXT: compound 0.5 µM; ATP 10 µM
QUANTITY_NAME: residual activity (%)
Please respond with the number in % and leave the unit unwritten.

Please review the following examples before continuing.
CC(C)(C)c1nc2c3ccc(F)cc3c3c(=O)[nH]ccc3c2[nH]1: 75.2
O=C(NC(NC(=S)Nc1ccc(F)c([N+](=O)[O-])c1)C(Cl)(Cl)Cl)C(c1ccccc1)c1ccccc1 (stereo not given): 93.7
CSc1nc(-c2ccc(F)cc2)c(-c2ccnc(NC(C)c3ccccc3)c2)[nH]1 (stereo not given): 98.9
COc1cc2ncnc(Nc3ccc(F)c(Cl)c3)c2cc1OCCCN1CCOCC1: 112

(Q) Recall the reported residual activity of O=C(Nc1ccc(Cl)cc1)c1ccccc1NCc1ccncc1 when tested on INSRR (human) (UniProt P14616).
(A) 96.1

###

# EXPERIMENTAL_TARGET: UniProtKB P51955
# Sequence (P51955 whole entry, looked up): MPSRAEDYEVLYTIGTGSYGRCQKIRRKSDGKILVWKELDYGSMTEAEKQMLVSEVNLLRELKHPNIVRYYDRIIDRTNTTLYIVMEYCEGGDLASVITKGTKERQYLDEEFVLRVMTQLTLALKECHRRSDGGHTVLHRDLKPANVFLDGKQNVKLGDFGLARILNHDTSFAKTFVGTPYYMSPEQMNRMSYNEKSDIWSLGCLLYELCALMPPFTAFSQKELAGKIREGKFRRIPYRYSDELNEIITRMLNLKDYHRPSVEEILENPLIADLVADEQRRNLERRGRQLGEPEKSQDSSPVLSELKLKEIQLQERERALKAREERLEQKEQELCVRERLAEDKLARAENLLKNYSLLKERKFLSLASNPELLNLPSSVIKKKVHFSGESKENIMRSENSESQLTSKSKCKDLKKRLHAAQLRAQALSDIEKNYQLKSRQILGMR
# PROTOCOL_TEXT: radiometric filter-binding kinase assay, Kinase HotSpot
# MEASUREMENT_CONTEXT: compound 0.5 µM; ATP 10 µM
A collection of compounds and their measured residual activity
Please respond with the number in % and leave the unit unwritten.

Please review the following examples before continuing.
O=C1Cc2c([nH]c3ccc([N+](=O)[O-])cc23)-c2ccccc2N1: 92.4
COc1ccc(-c2cnc3c(-c4ccsc4)cnn3c2)cc1: 90.2
Nc1n[nH]c2nnc(-c3c(-c4ccccc4)nn4ccccc34)cc12: 95.3
NC(=O)c1ccc(N(C(N)=O)c2c(F)cccc2F)nc1-c1ccc(F)cc1F: 109
Clc1ccc(Nc2nnc(Cc3ccncc3)c3ccccc23)cc1: 101

(Q) Please give measured residual activity of the following entry: O=c1cc(-c2cccc3c2Sc2ccccc2S3)oc(N2CCOCC2)c1
(A) 103

###

# EXPERIMENTAL_TARGET: NUAK1 (human)
# PROTOCOL_TEXT: radiometric filter-binding kinase assay, Kinase HotSpot
# MEASUREMENT_CONTEXT: compound 0.5 µM; ATP 10 µM
QUANTITY_NAME: residual activity (%)
Please respond with the number in % and leave the unit unwritten.

Please review the following examples before continuing.
COc1cc2nccc(Oc3ccc(NC(=S)NC(=O)c4ccccc4C)cc3)c2cc1OC: 82.5
CCCNC(=O)Nc1ccc(Oc2ncnc3cc(OC)c(OC)cc23)cc1Cl: 92.3
O=C1Nc2cc(Br)ccc2/C1=C1/Nc2ccccc2/C1=N\O: 15.7
O=c1cc(-c2cccc3c2Sc2ccccc2S3)oc(N2CCOCC2)c1: 93.1

Now take the following compound into account.
(Q) Please give measured residual activity of the following entry: NC(=O)c1ccc(N(C(N)=O)c2c(F)cccc2F)nc1-c1ccc(F)cc1F
(A) 108
